Values compiled from paper PMC4727756.

Test: in vitro
Type: in vitro ADME
Settings: rat plasma QC samples; rat plasma, freeze thaw (3 cycles), 1.25 ng/ml
Reported endpoint: recovery at 3 days, 1.25 ng/mL (%)

>>> recorded_number("Cc1ccc(C)c(COc2cc(NC(=O)c3cc(C(F)(F)F)cc(C(F)(F)F)c3)ccc2N(C)S(C)(=O)=O)c1 [BMCL26]")
98.1

---

Assay: in vitro
Assay type: in vitro ADME
Settings: rat plasma QC samples; rat plasma, freeze thaw (3 cycles), 80.00 ng/ml
Reported endpoint: recovery at 3 days, 80 ng/mL (%)

>>> recorded_number("Cc1ccc(C)c(COc2cc(NC(=O)c3cc(C(F)(F)F)cc(C(F)(F)F)c3)ccc2N(C)S(C)(=O)=O)c1")
105

---

Assay: in vitro
Format: in vitro ADME
Conditions: rat, post-extraction (post-preparation) rat plasma QC samples; post extraction (10 hr) at room temp, 80.00 ng/ml
Reported endpoint: recovery at 10 h, 80 ng/mL

>>> result("Cc1ccc(C)c(COc2cc(NC(=O)c3cc(C(F)(F)F)cc(C(F)(F)F)c3)ccc2N(C)S(C)(=O)=O)c1 [BMCL26]")
"108%"
